# Test system: MDA-MB-435 melanoma
# ASSAY_METHOD_TEXT: NCI-60 one-dose screen, 48 h
# CONDITIONS_USED: 10 µM unless noted
The panel holds about 83,000 compounds, 20% with a hit somewhere; the sample as a whole holds those more often. The source made the active and inactive calls. How the source made its calls: active means growth percent below 10; inactive means the rest.
Would you mind answering with one of these outcomes? T for active, F for inactive

* Oc1ccc(CCl)c2cccnc12 | F
* CCc1ccc2nc(NC(=O)Cc3csc(NC(=O)c4ccco4)n3)sc2c1 | F
* COc1ccc(/C=C(/C#N)n2nnc3cccc(F)c32)cc1 | T
* CCOC(=O)/C=C1\S/C(=N\Nc2ccc([N+](=O)[O-])cc2[N+](=O)[O-])N(Cc2ccccc2)C1=O | F
* COc1cccc(Oc2ccccc2NC(=O)CNC(=O)c2cccc3ccccc23)c1 | T

Challenge: Identify the outcome logged in this assay for the compound shown: `Nc1ccccc1-c1cc2c(c3c1[nH]c1ccccc13)CCCCC2`
Response given: F

Challenge: Identify the outcome logged in this assay for the compound shown: `Clc1ccc2c(c1)N(CCCN1CCCC1)c1ccccc1S2`
Response given: T

Challenge: Identify the outcome logged in this assay for the compound shown: C=C1C(=O)O[C@H]2[C@H]1CC/C(COC(=O)C(C)c1ccc(CC(C)C)cc1)=C\CC[C@@]1(C)O[C@@H]21 (stereo partly drawn)
Response given: T

Challenge: Identify the outcome logged in this assay for the compound shown: `CN(C)CCNc1nc2ccccc2c2c(=O)c3cc(F)ccc3sc12`
Response given: T

Challenge: Identify the outcome logged in this assay for the compound shown: `C=C1CC[C@@]2(C#N)[C@H]3[C@H](CC[C@@H]2C)[C@@H](C)C[C@@H](CC(C)(C)C#N)[C@H]13`
Response given: F

* * *

# Test system: NCI-H23 lung
# ASSAY_METHOD_TEXT: NCI-60 one-dose screen, 48 h
# CONDITIONS_USED: 10 µM unless noted
This is part of a sample that, as a whole, favours compounds with a hit. Of some 83,000 tested, about 20% had one in any assay. The source made the active and inactive calls. The calls were made as follows: active = growth percent below 10; inactive = the rest.
Would you mind answering with one of these outcomes? YES for active, NO for inactive

• CCOC(=O)c1cnn2c3ccccc3n(S(=O)(=O)c3ccc(OC)cc3)c12 = NO
• COc1ccc(-c2csc(NC(=O)N3CCN(c4cc5c(cc4F)c(=O)c(C(=O)O)cn5C4CC4)CC3)n2)cc1 = YES
• COc1ccccc1/C=C1\Oc2cc(OCCN3CCC(Cc4ccccc4)CC3)ccc2C1=O = NO
• O=c1c2cccc(F)c2sc2c(NCCCNCCO)nc3ccccc3c12 = NO

Would you kindly look at the next entry?
Challenge: Identify the outcome logged in this assay for the molecule shown: `Cc1ncc(C(=O)Nc2ccc(CN3CCN(C)CC3)c(C(F)(F)F)c2)cc1C#Cc1ccc(N)nc1`
Response given: YES

* * *

# Tested on: T-47D breast
# ASSAY_METHOD_TEXT: NCI-60 one-dose screen, 48 h (100 = growth as untreated, 0 = no growth, -100 = all killed)
# CONDITIONS_USED: 10 µM unless noted
About 83,000 compounds went through this panel and 20% of them were active in at least one assay; those are over-represented in the sample as a whole.
Decide by growth: equal to or exceeding 50% means Criterion met, less means Criterion not met.

These recorded examples may help you get a feel for the data.
• COc1ccc2c(c1)nc(NNC(=O)c1cnccn1)c1cccn12 = Criterion not met
• COc1cc(C(=O)/C=C/c2ccc(OCCCCCC[P+](c3ccccc3)(c3ccccc3)c3ccccc3)cc2)cc(OC)c1OC = Criterion not met

Would you kindly look at the next entry?
Challenge: Can `Cc1ccc(-c2nc3c(c(-c4ccccc4)nn3-c3ccccc3)c(-c3ccc(O)cc3)c2C#N)cc1` be said to have growth at or above 50%?
Response given: Criterion met

* * *

# Tested on: SNB-19 CNS
# ASSAY_METHOD_TEXT: NCI-60 one-dose screen, 48 h
# CONDITIONS_USED: 10 µM unless noted
This is part of a sample that, as a whole, favours compounds with a hit. Of some 83,000 tested, about 20% had one in any assay. Calls of active or inactive are those of the source. How the source made its calls: active means growth percent below 10; inactive means the rest.
Would you mind answering with one of these outcomes? 1 for active, -1 for inactive

- COc1ccc(-c2ncnc3c2ncn3CC#CCCl)cc1: -1
- CCCC1CCC(O)(C(C)(O)C(=O)NC2C(=O)N3NCCCC3C(=O)N(O)C(C)C(=O)N3NCCCC3C(=O)N3NCC(O)CC3C(=O)NC(C)C(=O)OC2C(C)C)OC1CC (stereo not given): 1
- O=CN1N=C(c2ccc(Nc3ccnc4cc(Cl)ccc34)cc2)CC1c1ccccc1 (stereo not given): -1
- Nc1cc2c(cc1Br)-c1cc(Cl)ccc1C2=O: -1

Challenge: Identify the outcome logged in this assay for the compound shown: CN(C)CCN1CCN(c2ncccc2C2Nc3ccccc3-n3cccc32)CC1 (stereo not given)
Response given: -1

Challenge: Identify the outcome logged in this assay for the compound shown: `COc1cc(CNS(=O)(=O)c2ccc(C)cc2)ccc1OCc1cn(-c2ccccc2)nn1`
Response given: -1

Challenge: Identify the outcome logged in this assay for the compound shown: COc1ccc(C2C(N)=NNC2c2cccc(O)c2)cc1 (stereo not given)
Response given: -1

Challenge: Identify the outcome logged in this assay for the compound shown: `COC(=O)CCC/C=C\C[C@H]1C=CC(=O)/C1=C/C[C@@H](O)CCc1cccc(C(F)(F)F)c1`
Response given: 1

Challenge: Identify the outcome logged in this assay for the compound shown: `Cc1ccc(-c2nc3c(c(-c4ccccc4)nn3-c3ccccc3)c(-c3ccc(O)cc3)c2C#N)cc1`
Response given: -1

Challenge: Identify the outcome logged in this assay for the compound shown: `NCCNc1nc2ccccc2c2c(=O)c3cccc(F)c3sc12`
Response given: -1

Challenge: Identify the outcome logged in this assay for the compound shown: `Cc1ccc(-c2nc(N3CCN(C(=O)c4ccc(OC(F)(F)F)cc4)CC3)c3ccccc3n2)cc1`
Response given: -1

Challenge: Identify the outcome logged in this assay for the compound shown: `O=C(Nn1c(NCC(=O)N2c3ccccc3Sc3ccccc32)nnc1-c1ccc(O)cc1)c1ccccc1`
Response given: -1

* * *

# Test system: PC-3 prostate
# ASSAY_METHOD_TEXT: NCI-60 one-dose screen, 48 h (100 = growth as untreated, 0 = no growth, -100 = all killed)
# CONDITIONS_USED: 10 µM unless noted
About 83,000 compounds went through this panel and 20% of them were active in at least one assay; those are over-represented in the sample as a whole.
Parameter class (string): assigned from measured growth. Ranges: low group (below 30%), middle group (30% to below 80%), high group (80% or more)

• CNCCCNc1nc2ccccc2c2c(=O)c3cc(F)ccc3sc12 = middle group
• CC(=O)CC(c1cccs1)c1c(-c2ccccc2)[nH]c2ccccc12 (stereo not given) = middle group
• COc1cc(C(=O)/C=C/c2sc(Cl)nc2Cl)cc(OC)c1OC = middle group
• CN1CCN(c2ccc(-c3cnc4c(-c5csc6ccccc56)cnn4c3)cc2)CC1 = low group
• COc1ccc(-n2c(N)c(-c3nc4ccccc4[nH]3)cc(C#N)c2=O)cc1 = high group
• CCOC(=O)Cn1c(C)c(/C=N/NC(=O)c2cc3c(ccc4ccccc43)o2)c2ccccc21 = low group
• C/C(=C\C(=O)c1ccc(Cl)cc1)c1ccc(Cl)cc1 = high group
• C=C(C)[C@@H]1CC[C@]2(N=C=O)CC[C@]3(C)[C@H](CC[C@@H]4[C@@]5(C)Cc6c([nH]c7ccccc67)C(C)(C)[C@@H]5CC[C@]43C)[C@@H]12 = middle group

Would you kindly look at the next entry?
Challenge: Which class is correct for the following compound? `O=c1c2cccc(F)c2sc2c(NCCCNCCO)nc3ccccc3c12`
Response given: middle group

* * *

Listing of entries alongside the reported growth.
# Tested on: HT29 colon
# ASSAY_METHOD_TEXT: NCI-60 one-dose screen, 48 h (100 = growth as untreated, 0 = no growth, -100 = all killed)
# CONDITIONS_USED: 10 µM unless noted
The panel holds about 83,000 compounds, 20% with a hit somewhere; the sample as a whole holds those more often.
Give the value, in units of %, as a plain number.

Consider the worked cases shown below.
• CCCCOc1nc2ccc(OC)cc2cc1-c1cc(-c2ccc(Cl)cc2)nc(-c2ccc(Cl)cc2)c1 = 104
• O=c1c2cc(F)cc(Cl)c2sc2c(NCCCNCCO)nc3ccccc3c12 = 3.35
• O=C1NC(=O)C(c2ccccc2)(c2ccccc2)N1Cc1cn(-c2c3ccccc3nc3ccccc23)nn1 = 85.3
• CCCCCCN(CCCCCC)c1ccc(/C=C2/SC(=O)NC2=O)c(C)c1 = 79.6
• CCOC(=O)C1=C(N)Oc2c(sc3c(CC)cccc23)C1c1ccc(F)cc1 (centres undefined) = 40.4

Challenge: Quick check: growth on HT29 colon, item `FC(F)(F)c1cc(Nc2ccc3c(OCCCN4CCOCC4)cccc3n2)ccc1Cl` ?
Response given: -22.7

Challenge: Quick check: growth on HT29 colon, item `O=C1c2cccc3cccc(c23)C(=O)N1N1C(=O)c2cccc3c(NC4CCCCC4)ccc(c23)C1=O` ?
Response given: 95.9

Challenge: Quick check: growth on HT29 colon, item `Cc1cccc2c1S/C(=C/c1ccc([N+](=O)[O-])cc1)C2=O` ?
Response given: 92.5

Challenge: Quick check: growth on HT29 colon, item `NC(=O)Nc1ccc2ncnc(Nc3ccc(Cl)cc3)c2c1` ?
Response given: 91.6

Challenge: Quick check: growth on HT29 colon, item `CNc1ccc(Nc2cccc(C)c2)c2c1C(=O)c1ccccc1C2=O` ?
Response given: 96.6

Challenge: Quick check: growth on HT29 colon, item Cc1cccc2c3c(sc12)C(c1ccc(Cl)cc1)C(C#N)=C(/N=C/c1ccc(Cl)cc1)O3 (centres undefined) ?
Response given: 6.06

Challenge: Quick check: growth on HT29 colon, item `COc1nc2ccccc2cc1-c1nc2c(cnn2-c2ccc(Br)cc2)c(=O)[nH]1` ?
Response given: 8.03

Where do the numbers come from? From PubChem BioAssay (NCI).
